Settings: buffer; pH 7.4; 6.0 h; 150.0 µM
# solubility kinetic annotations
Measured Property: solubility kinetic

[[record]]
molecule = "COc1c(O)cc2c(c1OC)-c1ccc(SC)c(=O)cc1C(NC(C)=O)CC2 (stereo unspecified)"
value_reported = "> 59 µg/mL"

[[record]]
molecule = "O=C(NCc1ccccc1)c1nc(S(=O)(=O)Cc2ccc(F)cc2)ncc1Cl"
value_reported = "< 1 µg/mL"

[[record]]
molecule = "COc1cc2c3cc1Oc1c(O)c(OC)cc4c1[C@@H](Cc1ccc(cc1)Oc1cc(ccc1O)C[C@H]3N(C)CC2)N(C)CC4"
value_reported = "> 88 µg/mL"

[[record]]
molecule = "Oc1ccc(CNc2cccnc2)c2cccnc12"
value_reported = "24.5 µg/mL"

[[record]]
molecule = "Cc1cccc(C)c1C(=O)Nc1cccc([S+](=O)([O-])N(C)C)c1"
value_reported = "41.4 µg/mL"

[[record]]
molecule = "O=[S+]([O-])(Nc1ccc(N2CCNCC2)cc1)c1ccc(NCc2ccc(Br)cc2O)cc1"
value_reported = "20.1 µg/mL"

[[record]]
molecule = "Cc1noc(C)c1-c1csc(N2CCC(C(N)=O)CC2)n1"
value_reported = "> 45 µg/mL"

[[record]]
molecule = "Oc1ccc(CNc2cccc(F)c2)c2cccnc12"
value_reported = "< 1 µg/mL"

[[record]]
molecule = "O=C1CCCC2=C1C1(CCSC1)N=C(Nc1nc3ccccc3o1)N2 (stereo unspecified)"
value_reported = "< 1 µg/mL"

[[record]]
molecule = "COc1ccc(-n2nc(C3CCCN(C(=O)Nc4ccccc4)C3)[nH]c2=O)cc1 (stereo unspecified)"
value_reported = "34.9 µg/mL"

[[record]]
molecule = "Cc1cc(Nc2ccc(Br)c(C)c2)n2nc(C)nc2n1"
value_reported = "30.9 µg/mL"

[[record]]
molecule = "CC(C)(O)CNc1nc(Nc2ccnc(C(F)(F)F)c2)nc(-c2cccc(C(F)(F)F)n2)n1"
value_reported = "11 µg/mL"

[[record]]
molecule = "CC(C)n1cc(-c2ccc(Oc3ccccc3)cc2)c2c(N)ncnc21"
value_reported = "< 1 µg/mL"

[[record]]
molecule = "Cc1cccc2nc(-c3cccnc3)c(Nc3ccc(C(C)C)cc3)n12"
value_reported = "< 1 µg/mL"

[[record]]
molecule = "COc1ccc(C(=O)N2CCC3(CC2)CN(c2cccc(-c4ccccc4)c2)C3)cc1"
value_reported = "< 1 µg/mL"

[[record]]
molecule = "Fc1ccc(Nc2nccc(-c3ccncc3)n2)cc1F"
value_reported = "2.48 µg/mL"

[[record]]
molecule = "COC(=O)c1ccc([C@H]2c3[nH]c4ccccc4c3C[C@H](C(=O)OC)N2C(=O)CCl)cc1"
value_reported = "< 1 µg/mL"

[[record]]
molecule = "O=C(c1cccs1)c1nonc1C(=O)c1cccs1"
value_reported = "< 1 µg/mL"

[[record]]
molecule = "Cc1ccc(S(=O)(=O)Nc2ccccc2C(=O)Nc2nc(-c3ccccc3)c(C)s2)cc1"
value_reported = "< 1 µg/mL"

[[record]]
molecule = "COC(=O)c1ccnc(-c2cc(C(=O)Nc3ccc(C4(N)CC4)cc3)ccn2)c1"
value_reported = "12.8 µg/mL"

[[record]]
molecule = "CC[C@@]1(O)C(=O)OCc2c1cc1n(c2=O)Cc2c-1nc1ccccc1c2CCNC(C)C"
value_reported = "> 6 µg/mL"

